# target_or_test_system: T1, human Y2 receptor (human, UniProt P49146 1-381)
# T1 construct: whole, on cells; used as membrane fraction of CHO/dhfr- cells stably expressing hY2R; also called hY2R; human NPY2R
# T1 sequence (looked up): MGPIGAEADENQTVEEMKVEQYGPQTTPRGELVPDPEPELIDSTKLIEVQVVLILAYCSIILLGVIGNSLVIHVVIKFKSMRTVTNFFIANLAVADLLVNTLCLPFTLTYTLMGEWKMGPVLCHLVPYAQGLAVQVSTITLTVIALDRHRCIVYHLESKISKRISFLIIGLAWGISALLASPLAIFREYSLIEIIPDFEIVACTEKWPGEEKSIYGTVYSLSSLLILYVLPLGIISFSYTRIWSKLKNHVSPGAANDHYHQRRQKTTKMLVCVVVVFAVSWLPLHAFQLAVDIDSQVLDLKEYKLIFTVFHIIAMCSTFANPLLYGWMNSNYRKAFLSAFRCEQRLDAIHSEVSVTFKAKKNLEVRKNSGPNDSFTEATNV
# method: RBA: displacement of [125I]-PYY from hY2R/CHO membranes
Non-standard residues stand in square brackets, D forms with d. *: point of attachment. X10 = Tetrahydro‑2H‑pyran‑4‑yl‑carbamoyl, O=C(NC1CCOCC1)*; Phe(2-Me) = Cc1ccccc1C[C@H](N)C(=O)O; tBuAla = CC(C)(C)C[C@H](N)C(=O)O; Cha = N[C@@H](CC1CCCCC1)C(=O)O; Aib = CC(C)(N)C(=O)O
Measured IC50 Ratio by item
quantity_measured: IC50 Ratio

>>> value("X10-S[dP]RH[Cha][tBuAla]NK[Aib]TRQR[Cha]-NH2 (SMILES C[C@@H](O)[C@H](NC(=O)C(C)(C)NC(=O)[C@H](CCCCN)NC(=O)[C@H](CC(N)=O)NC(=O)[C@H](CC(C)(C)C)NC(=O)[C@H](CC1CCCCC1)NC(=O)[C@H](Cc1c[nH]cn1)NC(=O)[C@H](CCCNC(=N)N)NC(=O)[C@H]1CCCN1C(=O)[C@H](CO)NC(=O)NC1CCOCC1)C(=O)N[C@@H](CCCNC(=N)N)C(=O)N[C@@H](CCC(N)=O)C(=O)N[C@@H](CCCNC(=N)N)C(=O)N[C@@H](CC1CCCCC1)C(N)=O, also called compound No. 229) [Tetrahydro-2H-pyran-4-yl-carbamoyl-[D-Pro24, Cha27,36, Leu(Me)28, Lys30, Aib31]-PYY(23-36)]")
"0.45 IC50 compound/IC50 PYY(3-36)"
>>> value("X10-E[dP]RH[Cha][Cha]NK[Aib]TRQR[Cha]-NH2 (SMILES C[C@@H](O)[C@H](NC(=O)C(C)(C)NC(=O)[C@H](CCCCN)NC(=O)[C@H](CC(N)=O)NC(=O)[C@H](CC1CCCCC1)NC(=O)[C@H](CC1CCCCC1)NC(=O)[C@H](Cc1c[nH]cn1)NC(=O)[C@H](CCCNC(=N)N)NC(=O)[C@H]1CCCN1C(=O)[C@H](CCC(=O)O)NC(=O)NC1CCOCC1)C(=O)N[C@@H](CCCNC(=N)N)C(=O)N[C@@H](CCC(N)=O)C(=O)N[C@@H](CCCNC(=N)N)C(=O)N[C@@H](CC1CCCCC1)C(N)=O, also called compound No. 230) [Tetrahydro-2H-pyran-4-yl-carbamoyl-[Glu23, D-Pro24, Cha27,28,36, Lys30, Aib31]-PYY(23-36)]")
"0.89 IC50 compound/IC50 PYY(3-36)"
>>> value("Ac-S[dP]RH[Cha][Cha]NL[Aib]TRQRX-NH2 (not fully specified (residue 14); printed as Ac-Ser-D-Pro-Arg-His-Cha-Cha-Asn-Leu-Aib-Thr-Arg-Gln-Arg-DL-Phe(2,6-Me2)-NH2; also: residue 36 is DL racemic, residue 36 is a DL racemate; also called compound No. 201) [Ac-[D-Pro24, Cha27,28, Aib31, DL-Phe(2,6-Me2)36]-PYY(23-36)]")
"1.6 IC50 compound/IC50 PYY(3-36)"
>>> value("Ac-S[dP]RH[Cha][tBuAla]NK[Aib]TRQR[Phe(2-Me)]-NH2 (SMILES CC(=O)N[C@@H](CO)C(=O)N1CCC[C@@H]1C(=O)N[C@@H](CCCNC(=N)N)C(=O)N[C@@H](Cc1c[nH]cn1)C(=O)N[C@@H](CC1CCCCC1)C(=O)N[C@@H](CC(C)(C)C)C(=O)N[C@@H](CC(N)=O)C(=O)N[C@@H](CCCCN)C(=O)NC(C)(C)C(=O)N[C@H](C(=O)N[C@@H](CCCNC(=N)N)C(=O)N[C@@H](CCC(N)=O)C(=O)N[C@@H](CCCNC(=N)N)C(=O)N[C@@H](Cc1ccccc1C)C(N)=O)[C@@H](C)O, also called compound No. 255) [Ac-[D-Pro24, Cha27, Leu(Me)28, Lys30, Aib31, Phe(2Me)36]-PYY(23-36)]")
"0.8 IC50 compound/IC50 PYY(3-36)"
